Kindly supply the reported SI** values for the records listed here.
Biological target: PvNMT (Plasmodium vivax, UniProt A5K1A2)
Construct: Gly-Pro stays on the protein after cleavage) (N, cleaved yes); host or cells: E. coli Rosetta 2 (DE3) pRARE
Sequence (A5K1A2 entry or part of it): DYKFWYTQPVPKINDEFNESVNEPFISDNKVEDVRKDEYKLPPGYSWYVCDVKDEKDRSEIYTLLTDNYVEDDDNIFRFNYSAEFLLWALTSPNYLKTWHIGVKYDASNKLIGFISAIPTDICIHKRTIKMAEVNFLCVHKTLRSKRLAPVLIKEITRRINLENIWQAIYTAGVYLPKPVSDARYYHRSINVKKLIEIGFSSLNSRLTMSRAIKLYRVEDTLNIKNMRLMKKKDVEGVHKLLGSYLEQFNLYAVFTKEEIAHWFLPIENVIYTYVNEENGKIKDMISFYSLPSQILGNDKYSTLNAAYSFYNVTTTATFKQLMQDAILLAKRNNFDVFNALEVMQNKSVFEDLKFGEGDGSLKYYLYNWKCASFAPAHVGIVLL
Assay: biochemical
Type: biochemical
Conditions: Table 1; enzyme selectivity calculated as HsNMT IC50/PvNMT IC50
Procedure: NMT activity was indirectly measured through the detection of free CoA by the thiol-reactive probe 7-diethylamino-3-(4′-maleimidylphenyl)-4-methylcoumarin (CPM). This study aimed to identify NMT is with high selectivity for the P. vivax enzyme compared with human NMTs and high potency against the different stages of the P. vivax parasite. […] Cytotoxicity was assessed in the human hepatoma HepG2 cell line. […]

Prompt: // lookup SI** for c1cncc(CCOc2cccnc2-c2ccnc(N3CCNCC3)c2)c1 [Compound 12h]
Completion: 90.9

Prompt: Queued: c1cncc(CCOc2ccccc2-c2ccnc(N3CCNCC3)c2)c1 [Compound 12j]
Completion: 220.6

Prompt: Queued: Fc1ccc(-c2ccnc(N3CCNCC3)c2)c(OCCc2cccnc2)c1 [Compound 12l]
Completion: 73

Prompt: Queued: Cc1n[nH]c(C)c1CCOc1ccccc1-c1ccnc(N2CCNCC2)c1 [Compound 12n]
Completion: 65.7

Prompt: Queued: c1cncc(CCOc2cccnc2-c2cccc(N3CCNCC3)c2)c1 [Compound 12g]
Completion: 152.8

Prompt: Queued: Cc1nn(C)c(C)c1CCOc1ccccc1-c1cccc(N2CCNCC2)c1 [Compound 12d]
Completion: 153.4

Prompt: Queued: Cc1nn(C)c(C)c1CCOc1cc(F)ccc1-c1cc(N2CCNCC2)ncn1 [Compound 16b]
Completion: 164.4

Prompt: Queued: Cc1nn(C)c(C)c1CCOc1ccccc1-c1ccnc(N2CCNCC2)c1 [Compound 12c]
Completion: 63.1

Prompt: Queued: Cc1n[nH]c(C)c1CCOc1cc(F)ccc1-c1ccnc(N2CCNCC2)c1 [Compound 12q]
Completion: 22

Prompt: Queued: Cc1nn(C)c(C)c1CCOc1cccnc1-c1ccnc(N2CCNCC2)c1 [Compound 12a]
Completion: 146.7

Prompt: Queued: Cc1nn(C)c(C)c1CCOc1cc(F)ccc1-c1ccnc(N2CCNCC2)c1 [Compound 12e]
Completion: 7.8

Prompt: Queued: Cc1nn(C)c(C)c1CCOc1cc(F)ccc1-c1cccc(N2CCNCC2)c1 [Compound 12f]
Completion: 43.9
